Assay: qHTS drug screen for cell cycle checkpoint inhibitors in PARPi-resistant BRCA-mutant ovarian cancer cell lines. (AID 1963452)
Details: PEO1/OlaR viability, CellTiter-Glo luminescence, 96 h; measured here: PEO4 Z-AUC; stronger effect = lower value
Threshold 0.03: Z-AUC strictly smaller gives T, otherwise F.

Worked set:
1) Nc1ccc(F)cc1NC(=O)c1ccc(CNC(=O)/C=C/c2cccnc2)cc1	T
2) Cc1ncc(NC(=O)c2cccc(C(F)(F)F)c2)cc1-c1cnc(OC2CCOCC2)c(N2CCOCC2)c1	T
3) C[C@@H](C(=O)Nc1ccc(Cl)cc1)C1CCC(c2ccnc3ccc(F)cc23)CC1 (stereo partly specified)	T
4) CCNC(=O)Nc1ccc(-c2nc3c(c(N4CCOC[C@@H]4C)n2)CCN(C2COC2)C3)cc1	F
5) CCOC(=O)CCNc1cc(N2CCc3ccccc3CC2)nc(-c2ccccn2)n1	T
6) C/C=C/C/C=C/CCC(=O)[C@H]1O[C@H]1C(N)=O	T
7) CC[C@H](Nc1ncnc2nc[nH]c12)c1oc2ccccc2c(=O)c1-c1cccc(F)c1	F
8) Cc1ccc(-c2nn(C(C)(C)CNC(=O)c3ccncc3)c3ncnc(N)c23)cc1	T
9) N#Cc1c(N)nc(N)nc1N[C@H](c1nc2c(F)ccc(Cl)c2c(=O)n1-c1cccnc1)C1CC1	T
10) NC(=O)C1=C(O)[C@@]2(O)C(=O)C3=C(O)c4c(O)cccc4C[C@H]3C[C@H]2CC1=O	T

## Task Record "C[C@]12CCCN1CC1=NNC(=O)c3cc(F)cc4[nH]c2c1c34" : is its Z-AUC strictly below 0.03?
## Result F

## Task Try the compound "CC/C(=C(/c1ccc(/C=C/C(=O)O)cc1)c1ccc2[nH]ncc2c1)c1ccc(F)cc1Cl"
## Result T

## Task Also "Nc1nc2cc(-c3ccc4ncc(C(=O)N5CCOCC5)n4c3)ccc2o1" ?
## Result F

## Task Another compound: "CC(/C=C/[C@@H]1C[C@]1(C)c1ccc2c(c1)C(C)(C)CCC2(C)C)=C\C(=O)O"
## Result F

## Task Also check "COc1ccccc1C(=O)Nc1cc2c(cc1N1CCNC[C@H]1C)n(C)c(=O)n2C"
## Result F

## Task And the next one, "CCn1c(N)c(C(=O)NC)c(=O)c2ccc(C#C[C@@](C)(O)COC)nc21" ?
## Result F

## Task Would you kindly repeat that for "Cc1cc(Nc2ncnc3ccc(NC4=NC(C)(C)CO4)cc23)ccc1Oc1ccn2ncnc2c1" ?
## Result T

## Task Check "COc1cc2c(NC3CCN(C)CC3)nc(N3CCCN(C)CC3)nc2cc1OCCCN(C)C" too.
## Result T

## Task Field entry: "C[C@@H]1COCCN1c1cc(-c2ccnn2C)c2ccnc(-c3ccn[nH]3)c2n1"
## Result T

## Task Same question for "Cc1cc(OCCCc2c3n(c4c(-c5c(C)nn(C)c5C)c(Cl)ccc24)[C@H](C)CN(c2cn(C)c4ccc(C(=O)O)cc24)C3=O)cc(C)c1Cl" please.
## Result F

## Task Can you check "C=CC(=O)N1CC[C@@H](Oc2nc(Nc3ccc(N4CCC(N5CCN(C)CC5)CC4)cc3)c(C(N)=O)nc2CC)C1" next?
## Result T
